Just for reference, PubChem BioAssay AID1159580 is where these values come from.

experiment: chemical genetic growth profiling, strain panel (AID 1159580);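 note: tested at 20 µM; growth read once vehicle control cultures reached saturation at 30 °C; lower values mean less growth of the strain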; settings: S. cerevisiae deletion strains, growth OD, locus YKR091W, strain srl3
Hit rate of the full screen: of about 5,500 compounds, about 2,000 (36%) were called active. Another 18% or so got no clear call; they are omitted. Cut-off read from the data, not from the text of the source: active = normalized growth mostly below about 0.91 (no sharp cut-off); inconclusive = no clear call, values can overlap the other calls; inactive = mostly above about 0.92. This is one part of the list.
Outcomes: active, inactive

INSERT INTO assay_data (compound, assigned_category) VALUES
  ('NS(=O)(=O)c1cc(C2(O)NC(=O)c3ccccc32)ccc1Cl (stereo unspecified)', 'inactive'),
  ('OC1CC2CCCC(C1)N2Cc1ccccc1 (stereo unspecified)', 'inactive'),
  ('CN(C)c1ccc2nc3ccc(=[N+](C)C)cc-3sc2c1', 'active'),
  ('Oc1ccc2c(c1)OCC1(O)Cc3cc(O)c(O)cc3C21 (stereo unspecified)', 'inactive'),
  ('COC1=CC(=O)C(O)=C/C1=C\C=C\c1ccccc1', 'active'),
  ('Oc1cc2c(cc1O)C1c3ccc(O)c(O)c3OCC1(O)C2 (stereo unspecified)', 'inactive');
